Each recorded value in this set is attributed to patent US7037665B1.

Biological target: UniProt Q9UHM6
Sequence (Q9UHM6 whole entry): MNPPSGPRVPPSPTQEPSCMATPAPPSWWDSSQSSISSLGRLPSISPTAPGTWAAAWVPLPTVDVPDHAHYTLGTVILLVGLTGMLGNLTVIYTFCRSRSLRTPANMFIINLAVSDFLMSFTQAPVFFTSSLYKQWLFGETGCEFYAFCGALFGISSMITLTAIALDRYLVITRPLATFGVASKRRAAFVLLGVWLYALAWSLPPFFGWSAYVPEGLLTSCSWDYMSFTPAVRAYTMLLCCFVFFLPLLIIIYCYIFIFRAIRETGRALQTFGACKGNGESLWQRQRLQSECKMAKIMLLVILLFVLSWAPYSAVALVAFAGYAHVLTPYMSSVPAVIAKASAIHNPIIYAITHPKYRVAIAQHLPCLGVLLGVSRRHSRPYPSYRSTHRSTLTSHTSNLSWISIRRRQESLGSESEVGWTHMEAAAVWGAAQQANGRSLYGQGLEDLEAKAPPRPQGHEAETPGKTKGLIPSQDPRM
Test: Intracellular Ca2+ mobilization (FLIPR) in human SNORF36a-transfected Cos-7 cells
Conditions: photobleached SNORF36a-transfected Cos-7 cells, FLIPR, n=3
measured_quantity: EC50 (nM)

a. CC1=C(/C=C/C(C)=C/C=C/C(C)=C/C=O)C(C)(C)CCC1 [all-trans-retinal]
b. CC1=C(/C=C/C(C)=C\C=C\C(C)=C\C=O)C(C)(C)CCC1 [9-cis-retinal]
c. CC1=C(/C=C/C(C)=C/C=C/C(C)=C/C=O)C(C)(C)CCC1 [13-cis-retinal]
(Q) // ascending sort on EC50 for the entries above Output spec: a listing of the labels in the requested order.
(A) b, a, c
(b: 152 nM, a: 263 nM, c: 477 nM)
